Tested on: NCI-H226 lung
Experiment: NCI-60 one-dose screen, 48 h (100 = growth as untreated, 0 = no growth, -100 = all killed)
Conditions: 10 µM unless noted
Description: Growth inhibition of the NCI-H226 human Non-Small Cell Lung tumor cell line is measured as a screen for anti-cancer activity. Cells are grown in 96 well plates and exposed to the test compound for 48 hours. Compounds are tested at a single concentration, which is 10^-5 M for most compounds. The reported endpoint is percent growth (GI% or GIPRCNT), where numbers from 0 - 100% represent growth inhibition, and numbers from -100% - 0 represent cell death. […]
The panel holds about 83,000 compounds, 20% with a hit somewhere; the sample as a whole holds those more often.
Decide using growth: a value greater than or equal to 70% is T, a smaller one is F.

[in] I'd appreciate it if you could say whether `CC(C)C1=C[C@@]23CC[C@H]4[C@](C)(COCCC#N)CCC[C@]4(C)[C@H]2C[C@@H]1[C@@H]1[C@H]3[C@@H](OCCC#N)CC[C@@H]1OCCC#N` has growth at least equal to 70%.
[out] F

[in] I'd appreciate it if you could say whether `C[C@H](Oc1cc(-c2cnn(C3CCNCC3)c2)cnc1N)c1c(Cl)ccc(F)c1Cl` has growth at least equal to 70%.
[out] T

[in] I'd appreciate it if you could say whether `Nc1c(C(=O)Nc2cccc3ccccc23)sc2nc3c(cc12)CCCCC3` has growth at least equal to 70%.
[out] T

[in] I'd appreciate it if you could say whether `S=c1ssnc1-c1cc2ccccc2o1` has growth at least equal to 70%.
[out] T

[in] I'd appreciate it if you could say whether `C=C1C(=O)O[C@H]2[C@H]1CC/C(COC(=O)c1cccnc1N)=C\CC[C@@]1(C)O[C@@H]21` has growth at least equal to 70%.
[out] F

[in] I'd appreciate it if you could say whether `O=C(/C(=C/c1ccc([N+](=O)[O-])cc1)SCc1ccc(F)cc1)c1ccc(Cl)cc1` has growth at least equal to 70%.
[out] F

[in] I'd appreciate it if you could say whether `O=C1[C@@H](OS(=O)(=O)CC(F)(F)F)[C@H](c2ccc(F)cn2)N1c1cc2c3ccccc3ccc2c2ccccc12` has growth at least equal to 70%.
[out] T

* * *

System: OVCAR-3 ovarian
Experiment: NCI-60 one-dose screen, 48 h (100 = growth as untreated, 0 = no growth, -100 = all killed)
Settings: 10 µM unless noted
The panel holds about 83,000 compounds, 20% with a hit somewhere; the sample as a whole holds those more often. The source made the active and inactive calls. How the source made its calls: active means growth percent below 10; inactive means the rest.
Can you tell me growth for the items I'm about to list?

Some molecules with recorded growth:
MOLECULE | MEASUREMENT_LABEL | EXPERIMENTAL_VALUE
Cc1cccc(C)c1NCc1nnc(-c2ccco2)o1 | growth | 94.8% (inactive)
O=C(O)COc1ccc2c(=O)c3sc4c(=O)c5ccccc5c(=O)c4c3c(=O)c2c1 | growth | 1.75% (active)
CC(=O)c1ccc(NC(=O)CSc2nnc(-c3cc(-c4ccc(C)cc4)nc4ccccc34)o2)cc1 | growth | 77.4% (inactive)
COCCc1n(Cc2ccc3ccccc3c2)c2ccccc2[n+]1Cc1ccc2ccccc2c1 | growth | -72.8% (active)
COc1ccc(Nc2cc(NC(=O)CNc3cc(OC)c(Cl)c(OC)c3Cl)ncn2)cc1 | growth | 81.6% (inactive)

Your task in this section: give growth for each listed record.
1. Cc1nnc(/N=C2\NC(=O)/C(=C/c3ccc(N(C)C)cc3)S2)s1
2. C=C1C(=O)O[C@H]2[C@H]1CC/C(COC(=O)NCC(=O)Nc1ccc(OC)c(C(N)=O)c1O)=C\CC[C@@]1(C)O[C@@H]21
3. Nc1ccc(C2=NN(C(=O)c3cc(-c4ccc(Cl)cc4)nc4ccccc34)C(c3ccc(Cl)cc3)C2)cc1 (centres undefined)
4. OCCNc1nc(NCCO)nc(Nc2ccc(C3=NN(c4cc(Cl)cc(Cl)c4)C(c4ccc(C(F)(F)F)cc4)C3)cc2)n1 (centres undefined)

[out]
1. 45.4% (inactive)
2. 25.7% (inactive)
3. 8.07% (active)
4. 4.39% (active)

* * *

Tested on: SF-295 CNS
Assay: NCI-60 one-dose screen, 48 h (100 = growth as untreated, 0 = no growth, -100 = all killed)
Details: 10 µM unless noted
Compounds without any hit were thinned out: in the full panel of roughly 83,000, 20% have a hit.
Can you tell me growth for the items I'm about to list?
Answers are plain numbers, in %.

COMPOUND | UNIT_ABBREVIATION | growth
CCN1CCN(Cc2ccc(NC(=O)c3cccc(C#Cc4cccc5[nH]nc(N)c45)c3)cc2C(F)(F)F)CC1 | % | -88.4
COc1ccc2oc(=O)cc(-c3nc4ccc(N)cc4[nH]3)c2c1 | % | 90.2
CC1=C/C(=N\N=C2/C=C(C)CC(C)(C)C2)CC(C)(C)C1 | % | 102

Your task in this section: give growth for each listed record.
1. CC(C)(C#N)c1cc(F)cc(C(=O)Nc2cc(Nc3ncccc3-c3ncnc4nc[nH]c34)ccc2F)c1
2. CNc1cccc2c1C(=O)c1cccc(N)c1C2=O
3. Cc1[nH]c2ncnc(Oc3ccc(NC(=O)Nc4ccc(Cl)c(C(F)(F)F)c4)cc3)c2c1C

[out]
[46.1, 88.5, 62.4]

Your task in this section: give growth for each listed record.
1. CC(C)(C)c1ccc(O)c(Cc2cc(C(C)(C)C)ccc2O)c1
2. O=c1c2ccccc2n(CC(O)CN2CCCC2)c2c(Br)cccc12 (stereo not drawn)
3. NS(=O)(=O)c1ccc(N2Cc3cc(Cl)ccc3OC3=C2C(=O)N(CC2CCCCC2)C3=O)cc1
4. COc1cc(C)ccc1Oc1nc(Nc2ccc(N3CCOCC3)cc2)ncc1N=Cc1cc(C(F)(F)F)cc(C(F)(F)F)c1

[out]
[109, 106, -19.3, 75.8]

Your task in this section: give growth for each listed record.
1. Nc1ccc(C2=NN(C(=O)c3cc(-c4ccc(Cl)cc4)nc4ccccc34)C(c3ccccc3)C2)cc1 (stereo not drawn)
2. CC1CCN(CCCCCOc2ccc3oc4ccccc4c(=O)c3c2)CC1

[out]
[13.1, 89.8]

Your task in this section: give growth for each listed record.
1. c1ccc(-c2n(Cc3ccc4ccccc4n3)cc[n+]2Cc2ccc3ccccc3c2)cc1
2. CN1CCN(CC#CCOC(=O)CNC(=O)[C@]23CCC(C)(C)C[C@H]2C2=CC[C@@H]4[C@@]5(C)CC[C@H](O)C(C)(C)[C@@H]5CC[C@@]4(C)[C@]2(C)CC3)CC1

[out]
[-7.2, 96.9]

* * *

System: DU-145 prostate
Assay: NCI-60 one-dose screen, 48 h
Settings: 10 µM unless noted
This is part of a sample that, as a whole, favours compounds with a hit. Of some 83,000 tested, about 20% had one in any assay. Activity calls are given as the source filed them. Rule for the calls: active = growth percent below 10; inactive = the rest.
Select the correct class. Options are active, inactive and nothing else.

MOLECULE | ANSWER_LABEL
COC1=CC=CC2(OC)C3(O)CCCc4cccc(c43)N3C(=O)COC132 (configuration not stated) | inactive
COc1ccc2[nH]c3nc4cnccc4cc3c2c1 | inactive
CN(CCC#N)C(=O)Nc1ccccc1 | inactive

[in] What call does the record list for `COc1cc(NCC(=O)Nc2cc(Nc3cccc(C(F)(F)F)c3)ncn2)c(Cl)c(OC)c1Cl` ?
[out] inactive

[in] What call does the record list for `CC(C)C[C@H](C(=O)O)N(C)C(=O)[C@@H]1CCCN1C(=O)[C@H](C)OC(=O)[C@H](CCC(N)=O)NC(=O)[C@@H]1CCC(=O)N1` ?
[out] inactive

[in] What call does the record list for `CC(=O)c1ccc(NC(=O)CSc2nnc(-c3cc(-c4ccc(C)cc4)nc4ccccc34)o2)cc1` ?
[out] inactive

* * *

Tested on: HCT-116 colon
Assay: NCI-60 one-dose screen, 48 h (100 = growth as untreated, 0 = no growth, -100 = all killed)
Conditions: 10 µM unless noted
About 83,000 compounds went through this panel and 20% of them were active in at least one assay; those are over-represented in the sample as a whole. Active and inactive are the calls of the source. Rule for the calls: active = growth percent below 10; inactive = the rest.
MEASUREMENT_LABEL: growth

COMPOUND | EXPERIMENTAL_VALUE
Cc1ccc(-c2nc(C#N)c(S(=O)(=O)N(C)CCO)o2)cc1 | 53.4% (inactive)
O=C(/C(=C/c1ccc([N+](=O)[O-])cc1)SCc1ccc(F)cc1)c1ccc(Cl)cc1 | 0.116% (active)
O=S(=O)(O)c1ccc(N=NSc2ccc3ccccc3c2)cc1 | 85.8% (inactive)

Your task in this section: give growth for each listed record.
1. COc1ccc(-c2nnc(N3CCN(C(=O)CN4CCN(c5ccccc5)CC4)CC3)nc2-c2ccc(OC)cc2)cc1
2. O=C1Nc2ccc(Br)cc2/C1=N\N=C/c1cn(Cc2ccccc2)c2ccccc12
3. CCOC(=O)c1c(C)nc2c(c1N)/C(=C/c1cccs1)C(=O)N2c1ccc(OC)cc1
4. Cc1ccc(C2CC(c3ccc(Nc4nc(NCCO)nc(NCCO)n4)cc3)=NN2c2ccc(Cl)cc2)cc1 (configuration not stated)
5. COc1cc(NC(=O)c2cc(O)c(C/C=C(\C)CCC=C(C)C)c(O)c2)cc2c1O[C@]1(C)CC[C@@H](O)C(C)(C)[C@H]1C2
6. CCCCc1n(Cc2ccc3ccccc3c2)c2ccccc2[n+]1Cc1ccc2ccccc2c1
7. Nc1cccc(C(=O)Nc2ccc3c(O)c(N=Nc4ccc(N=Nc5ccc(S(=O)(=O)O)cc5)cc4)c(S(=O)(=O)O)cc3c2)c1
8. OCCNc1nc(NCCO)nc(Nc2ccc(C3=NN(c4cc(Cl)cc(Cl)c4)C(c4ccccc4)C3)cc2)n1 (configuration not stated)

[out]
1. 8.34% (active)
2. 93.7% (inactive)
3. 20.9% (inactive)
4. 41.2% (inactive)
5. 10.8% (inactive)
6. -83.2% (active)
7. 95% (inactive)
8. 33.8% (inactive)

Your task in this section: give growth for each listed record.
1. S=c1ssnc1-c1cc2ccccc2o1
2. CN1CCN(S(=O)(=O)O[C@@H]2C(=O)N(c3cc4c5ccccc5ccc4c4ccccc34)[C@H]2c2ccc(F)cn2)CC1
3. COc1cc(NC(=O)Nc2cnc(Nc3ccc(N4CCOCC4)cc3)nc2Oc2ccc(F)cc2)cc(OC)c1
4. CC(C)(C)c1ccc2oc(=O)n(SC(Cl)(Cl)Cl)c2c1
5. O=C1Nc2ccccc2C12C=C(c1ccccc1)Nc1c2c(-c2ccccc2)nn1-c1ccccc1 (configuration not stated)
6. N#Cc1ccc(N2Cc3cc(Cl)ccc3OC3=C2C(=O)N(Cc2ccc(F)cc2)C3=O)cc1

[out]
1: 59.5% (inactive); 2: 85.3% (inactive); 3: 6.9% (active); 4: 103% (inactive); 5: 48.6% (inactive); 6: -90.4% (active)

Your task in this section: give growth for each listed record.
1. C#CCN1C(=O)c2ccccc2N(CC#C)C12CCN(Cc1cn(CC(=O)Nc3ccccc3C(N)=O)nn1)CC2
2. CCOC(=O)C1=C(C)n2nc(CC#N)c(C#N)c2NC1c1ccc(Cl)cc1 (configuration not stated)

[out]
["74.4% (inactive)", "101% (inactive)"]

Your task in this section: give growth for each listed record.
1. Cc1nnc(/N=C2\NC(=O)/C(=C/c3ccsc3)S2)s1
2. COc1ccc(/C=C/C(=O)/C=C(/C=C/c2ccc(OC)c(OC)c2)OB(F)F)cc1OC
3. CCCCn1c(=O)c(/C=C/C(=O)/C=C/c2ccc(OC)cc2)cc2cc(Cl)ccc21
4. Nc1cc(N)c(S(=O)(=O)O)cc1N=Nc1cc([N+](=O)[O-])ccc1O
5. O=C(Nc1ccc(S(=O)(=O)NC2CCCCCC2)cc1)C(c1ccccc1)S(=O)(=O)c1ccc(F)cc1 (configuration not stated)
6. O=C(NC[C@H](O)CN1CCc2ccccc2C1)c1cc(NC2COC2)ncn1
7. O=c1cc(/C=N\Nc2nc(-c3ccc(Cl)cc3Cl)cs2)c2cc(Cl)ccc2o1
8. Cc1cc(C)cc(Nc2nccc(-c3c(-c4ccc(F)cc4)ncn3C3CCNCC3)n2)c1

[out]
["83.6% (inactive)", "-45.6% (active)", "-67.1% (active)", "94% (inactive)", "5.61% (active)", "86.7% (inactive)", "80% (inactive)", "-98.8% (active)"]

Your task in this section: give growth for each listed record.
1. Nc1c(C(=O)Nc2ccccn2)sc2nc3c(cc12)C(=O)CCC3
2. O=C(Nc1nccs1)c1noc2ccccc12
3. COC(=O)/C=C/c1cc(OC(C)=O)c2c(c1)C(C(=O)OC)C(c1ccc(OC(C)=O)c(OC(C)=O)c1)O2 (configuration not stated)
4. Nc1ccc(C(=O)Nc2cccc(C(=O)Nc3ccc4c(O)c(N=Nc5ccc(N=Nc6ccc(S(=O)(=O)O)cc6)cc5)c(S(=O)(=O)O)cc4c3)c2)cc1
5. Cc1cccc(C)c1NCc1nnc(-c2ccc(O)cc2)o1
6. Nc1c(C(=O)Nc2ccccn2)sc2nc3c(cc12)CCCCCC3
7. CSc1nc(-c2ccc(F)cc2)c(C#N)c(N2CCOCC2)n1
8. C=C(C)[C@@H]1CC[C@]2(C(=O)OCCOCCOCC[P+](c3ccccc3)(c3ccccc3)c3ccccc3)CC[C@]3(C)[C@H](CC[C@@H]4[C@@]5(C)CC[C@H](OC(C)=O)C(C)(C)[C@@H]5CC[C@]43C)[C@@H]12

[out]
1: 26.3% (inactive); 2: 93.8% (inactive); 3: 9.77% (active); 4: 91.8% (inactive); 5: 102% (inactive); 6: 7.24% (active); 7: 96.6% (inactive); 8: -92.2% (active)

Your task in this section: give growth for each listed record.
1. Cc1c(Br)cccc1NC(=O)c1sc2nc3c(cc2c1N)CN(Cc1ccccc1)CC3
2. Cc1cnc(SCc2ccc(Cl)cc2)[nH]c1=S

[out]
1. 16.8% (inactive)
2. 101% (inactive)
